# Target: MCL1 (Homo sapiens)
# Sequence (Q07820 whole entry): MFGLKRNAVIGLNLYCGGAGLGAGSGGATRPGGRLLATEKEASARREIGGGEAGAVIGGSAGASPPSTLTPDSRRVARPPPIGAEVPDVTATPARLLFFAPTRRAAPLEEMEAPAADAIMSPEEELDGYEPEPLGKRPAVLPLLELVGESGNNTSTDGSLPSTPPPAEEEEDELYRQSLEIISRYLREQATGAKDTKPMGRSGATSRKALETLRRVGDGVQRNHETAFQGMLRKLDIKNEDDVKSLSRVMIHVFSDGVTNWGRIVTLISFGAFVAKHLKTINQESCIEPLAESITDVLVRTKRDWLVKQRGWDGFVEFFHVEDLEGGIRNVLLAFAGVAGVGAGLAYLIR
# Assay Remarks: MCL1 affinity assay (competition binding, qPCR readout)
# Run Parameters: recombinant MCL1, 11-point 3-fold dilution series
pKd: −log10 of the molar value.
Below is a list of entries, each paired with its recorded pKd value.
Value Kind: pKd

>>> test_value("COc1ccccc1-c1nccc(COc2ccccc2C[C@@H](Oc2nsc3cnc(-c4cccc(C#N)c4)c(-c4ccc(OCCN5CCN(C)CC5)c(Cl)c4C)c23)C(=O)O)n1 (atropisomer, axis not shown) [Compound 80]")
"≥ 7.00"
>>> test_value("Cc1c(-c2c(-c3ccsc3)ncc3snc(O[C@H](Cc4ccccc4OCc4ccnn4CC(F)(F)F)C(=O)O)c23)ccc(OCCN2CCN(C)CC2)c1Cl (atropisomer, axis not shown) [Compound 27]")
"6.30 to 7.00"
>>> test_value("COc1cccc(-c2ncc3snc(O[C@H](Cc4ccccc4OCc4ccnc(-c5ccccc5OC)n4)C(=O)O)c3c2-c2ccc(OCCN3CCCC3)c(Cl)c2C)c1 (atropisomer, axis not shown) [Compound 50]")
"≥ 7.00"
>>> test_value("COc1cccc(-c2ncc3snc(O[C@H](Cc4ccccc4OCc4ccnc(-c5ccccc5OC)n4)C(=O)O)c3c2-c2ccc(OCCN(C)C)c(Cl)c2C)c1 (atropisomer, axis not shown) [Compound 46]")
"≥ 7.00"
>>> test_value("COc1ccccc1-c1nccc(COc2ccccc2C[C@@H](Oc2nsc3cnc(C4CCC4)c(-c4ccc(OC)c(Cl)c4C)c23)C(=O)OCc2oc(=O)oc2C)n1 (atropisomer, axis not shown) [Compound 106]")
"6.30 to 7.00"
>>> test_value("COc1cccc(-c2ncc3snc(O[C@H](Cc4ccccc4OCc4ccnc(-c5ccccc5OC)n4)C(=O)O)c3c2-c2ccc(OCCN3CCCCC3)c(Cl)c2C)c1 (atropisomer, axis not shown) [Compound 43]")
"≥ 7.00"
>>> test_value("Cc1cc(-c2nccc(COc3ccccc3C[C@@H](Oc3nsc4cnc(C5CCC5)c(-c5ccc(OCCN6CCN(C)CC6)c(Cl)c5C)c34)C(=O)O)n2)ccc1S(=O)(=O)N1CCCC1 (atropisomer, axis not shown) [Compound 115]")
"6.30 to 7.00"
>>> test_value("COc1ccccc1-c1nccc(COc2ccccc2C[C@@H](Oc2nsc3cnc(C4CCC4)c(-c4ccc(OCCN5CCOCC5)c(Cl)c4C)c23)C(=O)O)n1 (atropisomer, axis not shown) [Compound 108]")
"≥ 7.00"
>>> test_value("COc1ccccc1-c1nccc(COc2ccccc2C[C@@H](Oc2nsc3cnc(-c4cnn(CC5CCC5)c4)c(-c4ccc(OCCN5CCN(C)CC5)c(Cl)c4C)c23)C(=O)O)n1 (atropisomer, axis not shown) [Compound 90]")
"6.30 to 7.00"
>>> test_value("Cc1c(-c2c(-c3cccc(C(F)(F)F)c3)ncc3snc(O[C@H](Cc4ccccc4OCc4ccnn4CC(F)(F)F)C(=O)O)c23)ccc(OCCN2CCN(C)CC2)c1Cl (atropisomer, axis not shown) [Compound 22]")
"5.82 to 6.30"
>>> test_value("COc1ccccc1-c1nccc(COc2ccccc2C[C@@H](Oc2nsc3cnc(C4CCC4)c(-c4ccc(OC)c(Cl)c4C)c23)C(=O)O)n1 (atropisomer, axis not shown) [Compound 107]")
"≥ 7.00"
>>> test_value("Cc1c(-c2c(-c3cccc4ccsc34)ncc3snc(O[C@H](Cc4ccccc4OCc4ccnn4CC(F)(F)F)C(=O)O)c23)ccc(OCCN2CCN(C)CC2)c1Cl (atropisomer, axis not shown) [Compound 24]")
"< 5.82"
>>> test_value("Cc1c(-c2c(-c3cccc(F)c3)ncc3snc(O[C@H](Cc4ccccc4OCc4ccnc(-c5ccncc5)n4)C(=O)O)c23)ccc(OCCN2CCN(C)CC2)c1Cl (atropisomer, axis not shown) [Compound 72]")
"≥ 7.00"
>>> test_value("Cc1c(-c2cc(-n3c(=O)n(C)c4cc(Cl)ccc43)cc3snc(O[C@H](Cc4ccccc4OCc4ccnn4CC(F)(F)F)C(=O)O)c23)ccc(OCCN2CCN(C)CC2)c1Cl [Compound 99]")
"< 5.82"
>>> test_value("Cc1c(-c2c(N3CC4(COC4)C3)ncc3snc(O[C@H](Cc4ccccc4OCc4ccnn4CC(F)(F)F)C(=O)O)c23)ccc(OCCN2CCN(C)CC2)c1Cl (atropisomer, axis not shown) [Compound 91]")
"< 5.82"
>>> test_value("COc1cccc(-c2ncc3snc(O[C@H](Cc4ccccc4OCc4ccnc(OCC(F)F)n4)C(=O)O)c3c2-c2ccc(OCCN3CCN(C)CC3)c(Cl)c2C)c1 [Compound 58]")
"≥ 7.00"
>>> test_value("COc1cccc(-c2ncc3snc(O[C@H](Cc4ccccc4OCc4ccnc(N5CCC(OC(F)F)CC5)n4)C(=O)O)c3c2-c2ccc(OCCN3CCN(C)CC3)c(Cl)c2C)c1 (atropisomer, axis not shown) [Compound 63]")
"5.82 to 6.30"
>>> test_value("Cc1c(-c2c(-c3csc4ccccc34)ncc3snc(O[C@H](Cc4ccccc4OCc4ccnn4CC(F)(F)F)C(=O)O)c23)ccc(OCCN2CCN(C)CC2)c1Cl (atropisomer, axis not shown) [Compound 19]")
"< 5.82"
